assay: endothelial E-selectin expression blockers – imaging, HUVEC, immunofluorescence, MLSMR starter and 10KST1 sets, primary screen (AID 487); conditions: HUVEC TNFalpha-induced E-selectin immunofluorescence imaging, at 2 µM; measured here: cell number, toxicity;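 also: 100% = median nuclei count of all wells on the same plate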
Value Type: nuclei count

{"Compound": "CCc1cc(-c2[nH]ncc2-c2ccc3c(c2)OCO3)c(O)cc1O", "Data Value": "111%"}
{"Compound": "C=CCNC(=O)CSc1ccc(Cl)cc1", "Data Value": "101%"}
{"Compound": "CCNC(=O)COc1ccc(Br)cc1Cl", "Data Value": "109%"}
{"Compound": "CCOc1ccccc1NC(=O)CSc1c(C)n[nH]c1C", "Data Value": "113%"}
{"Compound": "O=C(CCN1CCOCC1)Nc1ccc2c(c1)CCC2", "Data Value": "140%"}
{"Compound": "CCn1c(CNc2ccc(C)cc2)nnc1SCC(=O)NCc1ccccc1", "Data Value": "115%"}
{"Compound": "COC(=O)c1ccc(CN(c2ccccc2OC)S(=O)(=O)c2cccs2)o1", "Data Value": "98.6%"}
{"Compound": "CCOC(=O)c1c(C)oc2c1c(C=NCc1ccccn1)c(O)c1ccccc12", "Data Value": "124%"}
{"Compound": "Cc1sc2nc(SCC(=O)NCc3ccco3)n(CCc3ccccc3)c(=O)c2c1C", "Data Value": "108%"}
{"Compound": "Cc1ccc(CCNC(=O)C2CCN(S(=O)(=O)c3cccc4nsnc34)CC2)cc1", "Data Value": "158%"}
{"Compound": "COc1cccc(-c2cc(C(F)(F)F)n3nc(N)nc3n2)c1", "Data Value": "98.9%"}
{"Compound": "Cc1ccc(NC(=O)Nc2ccc3c(c2)N(C)C(=O)CS3)nc1", "Data Value": "116%"}
{"Compound": "CCc1nc(N[C@@H](Cc2c[nH]c3ccccc23)C(=O)O)c2oc3ccccc3c2n1", "Data Value": "98.6%"}
{"Compound": "Cc1ccc(-c2nn(C)c(=O)c3ccccc23)cc1S(=O)(=O)N1CCOCC1", "Data Value": "102%"}
{"Compound": "CN1C(=O)CSc2ccc(NC(=O)N3CCN(c4ccccn4)CC3)cc21", "Data Value": "112%"}
{"Compound": "O=C(CN1C(=O)c2cccc3cccc1c23)Nc1ccccc1C(=O)NCc1ccco1", "Data Value": "105%"}
{"Compound": "CN(C(=O)CSc1nc2c(c(=O)[nH]1)CCCC2)C1CCCCC1", "Data Value": "120%"}
{"Compound": "COc1ccccc1NC(=O)C(O)C(O)C(=O)Nc1ccccc1OC (stereo not drawn)", "Data Value": "101%"}
{"Compound": "c1cncc(-c2nnc(-c3ccco3)o2)c1", "Data Value": "95.6%"}
{"Compound": "CCn1ncc(C2=NOC(C(=O)NCc3ccc(Cl)cc3)C2)c1C (stereo not drawn)", "Data Value": "102%"}
{"Compound": "CCc1nnc(NC(=O)CSc2nnc(Cc3ccccc3)n2-c2ccc(OC)cc2)s1", "Data Value": "105%"}
{"Compound": "CCOC(=O)CSc1nc2ccccc2c(=O)n1NC(=O)c1ccccc1", "Data Value": "92.2%"}
{"Compound": "OC(CCN1CCCCC1)(c1ccccc1)C1CCCCC1 (stereo not drawn)", "Data Value": "119%"}
